From: patent US8450245B2

Assay: logP by HPLC on reversed-phase columns (C 18), EEC Directive 79/831 Annex V.A8
Type: physicochemical
Conditions: reversed-phase HPLC column (C 18); method [a]: LC-MS, acidic range, pH 2.7, 0.1% aqueous formic acid and acetonitrile, linear gradient 10% to 95% acetonitrile
endpoint_label: chromatographic logP
Lab note: jot the number down without any unit.

For reference, reported chromatographic logP for CC(C)(C)C(O)(COc1ccc(I)c(F)c1F)c1cncs1 (stereo not shown) [Compound 1] stands at 3.76
